- Tgt: Biotin-Aβ(1-42) (Homo sapiens, UniProt P05067)
- Construct: Biotin-Aβ(1-42) (AnaSpec) at 0.2 mg/ml in hexafluoroisopropanol (HFIP); purchased AnaSpec
- Sequence (P05067 672-713 limits assumed): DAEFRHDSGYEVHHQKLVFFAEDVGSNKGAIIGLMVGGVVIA
- Measurement description: Biotin-Aβ(1-42) oligomeric assay
- Format: biochemical
- Study conditions: inhibition of oligomer formation at 25 uM, 30 minutes; higher = more inhibition
Reported inhibition at 25 µM by item:
Measurement label: inhibition at 25 µM (%)

| Compound | Tgt | Measurement label | Measurement |
| --- | --- | --- | --- |
| CC(O)C1CN(c2cc(-c3cccc(C(O)C(F)(F)F)c3)cc3nonc23)C1 (stereo not shown) | Biotin-Aβ(1-42) (Homo sapiens, UniProt P05067) | inhibition at 25 µM | 4 |
| OC1CCN(c2cc(-c3cccc(C(O)C(F)(F)F)c3)cc3nonc23)C1 (stereo not shown) | Biotin-Aβ(1-42) (Homo sapiens, UniProt P05067) | inhibition at 25 µM | -23 |
| OC(c1cccc(-c2cc(N3CCC(N4CCCC4)CC3)c3nonc3c2)c1)C(F)(F)F (stereo not shown) | Biotin-Aβ(1-42) (Homo sapiens, UniProt P05067) | inhibition at 25 µM | 75 |
| OC(c1cccc(-c2cc(N3CC(N4CCCC4)C3)c3nonc3c2)c1)C(F)(F)F (stereo not shown) | Biotin-Aβ(1-42) (Homo sapiens, UniProt P05067) | inhibition at 25 µM | 3 |

###

- Tgt: Aβ40 (Homo sapiens, UniProt P05067)
- Sequence (P05067 672-711 limits assumed, species assumed): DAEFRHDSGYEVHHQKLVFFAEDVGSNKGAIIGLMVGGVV
- Measurement description: kinetic ThT assay for Aβ aggregation
- Format: biochemical
- Study conditions: compound 20 μM; DMSO control at 80 hr = 0% inhibition; parenthesis = compound 1027; read-out: % inhib. A β 40 (20 μM)

| Compound | inhibition at 20 µM, % |
| --- | --- |
| OC(c1cccc(-c2cc(N3CCC(N4CCCC4)CC3)c3nonc3c2)c1)C(F)(F)F (stereo not shown) | 78 |
| O=C(c1ccccc1)N1CCN(c2ccc([N+](=O)[O-])c(Nc3ccccc3)c2)CC1 [compound 1027, reference compound] | 69 |
| C#CCN(C)c1cc(-c2cccc(C(O)C(F)(F)F)c2)cc2nonc12 (stereo not shown) | 69 |
| COC1CCN(c2cc(-c3cccc(C(O)C(F)(F)F)c3)cc3nonc23)C1 (stereo not shown) | 81 |

###

- Tgt: Aβ40 (Homo sapiens, UniProt P05067)
- Measurement description: kinetic ThT assay for Aβ aggregation
- Format: biochemical
- Study conditions: 80 h, compound 5 μm; DMSO control at 80 hr = 0% inhibition; parenthesis = compound 1027; read-out: % inhib Aβ 40 (5 μm)

| Compound | Tgt | Result units | inhibition at 5 µM |
| --- | --- | --- | --- |
| CN(Cc1nccs1)c1cc(-c2cccc(C(O)C(F)(F)F)c2)cc2nonc12 (stereo not drawn) | Aβ40 (Homo sapiens, UniProt P05067) | % | 47 |
| CN(Cc1ccccn1)c1cc(-c2cccc(C(O)C(F)(F)F)c2)cc2nonc12 (stereo not drawn) | Aβ40 (Homo sapiens, UniProt P05067) | % | 51 |
| CC1(O)CN(c2cc(-c3cccc(C(O)C(F)(F)F)c3)cc3nonc23)C1 (stereo not drawn) | Aβ40 (Homo sapiens, UniProt P05067) | % | 48 |
| CC(C)OC1CN(c2cc(-c3cccc(C(O)C(F)(F)F)c3)cc3nonc23)C1 (stereo not drawn) | Aβ40 (Homo sapiens, UniProt P05067) | % | 54 |
| OC(c1cccc(-c2cc(NCc3ccccc3)c3nonc3c2)c1)C(F)(F)F (stereo not drawn) | Aβ40 (Homo sapiens, UniProt P05067) | % | 57.1 |
| CCN(CC)c1cc(-c2cccc(C(O)C(F)(F)F)c2)cc2nonc12 (stereo not drawn) | Aβ40 (Homo sapiens, UniProt P05067) | % | 60 |
| CC(C)(O)[C@@H]1CCCN1c1cc(-c2cccc(C(O)C(F)(F)F)c2)cc2nonc12 (stereo partly drawn) | Aβ40 (Homo sapiens, UniProt P05067) | % | 55 |
| CN(C)CCCN(C)c1cc(-c2cccc(C(O)C(F)(F)F)c2)cc2nonc12 (stereo not drawn) | Aβ40 (Homo sapiens, UniProt P05067) | % | 43.8 |
| COc1ccc(CN(C)c2cc(-c3cccc(C(O)C(F)(F)F)c3)cc3nonc23)cc1 (stereo not drawn) | Aβ40 (Homo sapiens, UniProt P05067) | % | 53 |
| OC1CCN(c2cc(-c3cccc(C(O)C(F)(F)F)c3)cc3nonc23)C1 (stereo not drawn) | Aβ40 (Homo sapiens, UniProt P05067) | % | 45 |
| CCOC1CN(c2cc(-c3cccc(C(O)C(F)(F)F)c3)cc3nonc23)C1 (stereo not drawn) | Aβ40 (Homo sapiens, UniProt P05067) | % | 44 |
| COc1cc(CN(C)c2cc(-c3cccc(C(O)C(F)(F)F)c3)cc3nonc23)cc(OC)c1 (stereo not drawn) | Aβ40 (Homo sapiens, UniProt P05067) | % | 52 |
| COC(C)C1CN(c2cc(-c3cccc(C(O)C(F)(F)F)c3)cc3nonc23)C1 (stereo not drawn) | Aβ40 (Homo sapiens, UniProt P05067) | % | 58.9 |
| CC(O)C1CN(c2cc(-c3cccc(C(O)C(F)(F)F)c3)cc3nonc23)C1 (stereo not drawn) | Aβ40 (Homo sapiens, UniProt P05067) | % | 54 |
| CN(Cc1ccc(F)cc1)c1cc(C(O)C(F)(F)F)cc2nonc12 (stereo not drawn) | Aβ40 (Homo sapiens, UniProt P05067) | % | 38 |
| CN(Cc1ccccc1)c1cc(C(O)C(F)(F)F)cc2nonc12 (stereo not drawn) | Aβ40 (Homo sapiens, UniProt P05067) | % | 36 |
| OC[C@@H]1CCCN1c1cc(-c2cccc(C(O)C(F)(F)F)c2)cc2nonc12 (stereo partly drawn) | Aβ40 (Homo sapiens, UniProt P05067) | % | 57 |
| OC(c1cccc(-c2cc(N3CC(CN4CCOCC4)C3)c3nonc3c2)c1)C(F)(F)F (stereo not drawn) | Aβ40 (Homo sapiens, UniProt P05067) | % | 41 |
| OC(c1cccc(-c2cc(N3CC(CN4CCCC4)C3)c3nonc3c2)c1)C(F)(F)F (stereo not drawn) | Aβ40 (Homo sapiens, UniProt P05067) | % | 51 |
| OC(c1cccc(-c2cc(N3CC(N4CCOCC4)C3)c3nonc3c2)c1)C(F)(F)F (stereo not drawn) | Aβ40 (Homo sapiens, UniProt P05067) | % | 53 |
| CN(Cc1ccc(F)cc1)c1cc(-c2cccc(C(O)C(F)(F)F)c2)cc2nonc12 (stereo not drawn) | Aβ40 (Homo sapiens, UniProt P05067) | % | 51 |
| CN(Cc1cccnc1)c1cc(-c2cccc(C(O)C(F)(F)F)c2)cc2nonc12 (stereo not drawn) | Aβ40 (Homo sapiens, UniProt P05067) | % | 53 |
| CN(C)C1CCN(c2cc(-c3cccc(C(O)C(F)(F)F)c3)cc3nonc23)CC1 (stereo not drawn) | Aβ40 (Homo sapiens, UniProt P05067) | % | 36.9 |
| OC(c1cccc(-c2cc(N3CCSCC3)c3nonc3c2)c1)C(F)(F)F (stereo not drawn) | Aβ40 (Homo sapiens, UniProt P05067) | % | 65.6 |
